# protocol.summary: Cytotoxicity against human HuH7 cells after 3 days
# Assay type: cell-based, Huh-7
observation.type: CC50 at 72 h

compound	observation.type	readout.value
COc1nc(N)nc2c1ncn2[C@@H]1O[C@H](COP(=O)(N[C@@H](Cc2ccccc2)C(=O)OCC(C)(C)C)N[C@@H](Cc2ccccc2)C(=O)OCC(C)(C)C)[C@@H](O)[C@@]1(C)O (mixture of isomers)	CC50 at 72 h	24 µM
COc1nc(N)nc2c1ncn2[C@@H]1O[C@H](COP(=O)(N[C@@H](C)C(=O)OCC(C)(C)C)N2CCCC2)[C@@H](O)[C@@]1(C)O (mixture of isomers)	CC50 at 72 h	> 100 µM
CCOc1nc(N)nc2c1ncn2[C@@H]1O[C@H](CO)[C@@H](O)[C@@]1(C)O	CC50 at 72 h	> 100 µM
COc1nc(N)nc2c1ncn2[C@@H]1O[C@H](COP(=O)(N[C@H](C(=O)OC2CCCCC2)c2ccccc2)N[C@H](C(=O)OC2CCCCC2)c2ccccc2)[C@@H](O)[C@@]1(C)O (mixture of isomers)	CC50 at 72 h	18 µM
CCCCNP(=O)(N[C@@H](C)C(=O)OCC(C)(C)C)OC[C@H]1O[C@@H](n2cnc3c(OC)nc(N)nc32)[C@](C)(O)[C@@H]1O (mixture of isomers)	CC50 at 72 h	> 100 µM
COc1nc(N)nc2c1ncn2[C@@H]1O[C@H](COP(=O)(N[C@@H](C)C(=O)OCC(C)(C)C)N[C@@H](C)C(=O)OC(C)(C)C)[C@@H](O)[C@@]1(C)O (mixture of isomers)	CC50 at 72 h	> 100 µM

###

# protocol.summary: Cytotoxicity against human HuH7 cells after 3 days
# Assay type: cell-based, Huh-7

compound	CC50 at 72 h
CC[C@H](C)[C@H](NP(=O)(N[C@H](C(=O)OC1CCCCC1)[C@@H](C)CC)OC[C@H]1O[C@@H](n2cnc3c(OC)nc(N)nc32)[C@](C)(O)[C@@H]1O)C(=O)OC1CCCCC1 (mixture of isomers)	14 µM
COc1nc(N)nc2c1ncn2[C@@H]1O[C@H](COP(=O)(N[C@H](C)C(=O)OCC(C)(C)C)N[C@H](C)C(=O)OCC(C)(C)C)[C@@H](O)[C@@]1(C)O (mixture of isomers)	> 100 µM
COc1nc(N)nc2c1ncn2[C@@H]1O[C@H](COP(=O)(Nc2cccc3ccccc23)N[C@@H](C)C(=O)OCC(C)(C)C)[C@@H](O)[C@@]1(C)O (mixture of isomers)	> 100 µM
COc1nc(N)nc2c1ncn2[C@@H]1O[C@H](COP(=O)(NCC(=O)OCc2ccccc2)NCC(=O)OCc2ccccc2)[C@@H](O)[C@@]1(C)O (mixture of isomers)	> 100 µM
COc1nc(N)nc2c1ncn2[C@@H]1O[C@H](COP(=O)(N[C@@H](C)C(=O)OC2CCCC2)N[C@@H](C)C(=O)OC2CCCC2)[C@@H](O)[C@@]1(C)O (mixture of isomers)	> 100 µM
CCOc1nc(N)nc2c1ncn2[C@@H]1O[C@H](COP(=O)(N[C@@H](C)C(=O)OC2CCCCC2)N[C@@H](C)C(=O)OC2CCCCC2)[C@@H](O)[C@@]1(C)O (mixture of isomers)	69 µM

###

# Test system: Hepatitis C virus
# protocol.summary: Antiviral activity against Hepatitis C virus subtype 1b Con1 infected in human Huh7 cells assessed as inhibition of HCV replicon-encoded Renilla luciferase reporter activity after 72 hrs by HCV replicon assay
# Assay type: functional, organism-based, Hepacivirus hominis
# condition.parameters: Con1, Huh-7, 72 h

molecule	readout.unit	censoring.sign	EC90
CCCCCOC(=O)[C@H](C)NP(=O)(N[C@@H](C)C(=O)OCCCCC)OC[C@H]1O[C@@H](n2cnc3c(OC)nc(N)nc32)[C@](C)(O)[C@@H]1O (mixture of isomers)	µM	=	0.11
COc1nc(N)nc2c1ncn2[C@@H]1O[C@H](COP(=O)(Nc2cccc3ccccc23)N[C@@H](C)C(=O)OCC(C)(C)C)[C@@H](O)[C@@]1(C)O (mixture of isomers)	µM	=	0.56
COc1nc(N)nc2c1ncn2[C@@H]1O[C@H](COP(=O)(N2CCC[C@H]2C(=O)OCc2ccccc2)N2CCC[C@H]2C(=O)OCc2ccccc2)[C@@H](O)[C@@]1(C)O (mixture of isomers)	µM	=	1.8
CC[C@H](C)[C@H](NP(=O)(N[C@H](C(=O)OC1CCCCC1)[C@@H](C)CC)OC[C@H]1O[C@@H](n2cnc3c(OC)nc(N)nc32)[C@](C)(O)[C@@H]1O)C(=O)OC1CCCCC1 (mixture of isomers)	µM	=	7.1
COc1nc(N)nc2c1ncn2[C@@H]1O[C@H](COP(=O)(NCCC(=O)OCc2ccccc2)NCCC(=O)OCc2ccccc2)[C@@H](O)[C@@]1(C)O (mixture of isomers)	µM	>	10
